Cited source for all entries: ChEMBL document CHEMBL1158583

assay: Volume of distribution at steady state in rat at […], iv; format: ADME, organism-based; design: dose 2.7 mg/kg, route intravenous; conditions: in vivo, read-out: Vdss
endpoint: Vd (L/kg)
Number in L/kg, nothing else.

What Vd value was documented for this compound, `Cc1cc(C)cc([C@@H](CC(C)C)NC(=O)c2cc(COc3ccccc3C)ccc2CCC(=O)O)c1` ?
1.24

###

experiment: AUC in rat at […], iv; type: ADME, organism-based; parameters: dose 1.8 mg/kg, route intravenous; conditions: plasma
endpoint: AUC (ng·h/mL)
Your answer should be a plain number; it is taken to be in ng·h/mL.

Fill blank: measured AUC of the molecule `Cc1cc(C)cc([C@@H](CC(C)C)NC(=O)c2cc(COc3cc(C)ccc3C)ccc2CCC(=O)O)c1` is ____.
1370
